Provenance of the data: patent US20080234384A1

Target: DMT1 (Homo sapiens)
Sequence (P49281 1-568): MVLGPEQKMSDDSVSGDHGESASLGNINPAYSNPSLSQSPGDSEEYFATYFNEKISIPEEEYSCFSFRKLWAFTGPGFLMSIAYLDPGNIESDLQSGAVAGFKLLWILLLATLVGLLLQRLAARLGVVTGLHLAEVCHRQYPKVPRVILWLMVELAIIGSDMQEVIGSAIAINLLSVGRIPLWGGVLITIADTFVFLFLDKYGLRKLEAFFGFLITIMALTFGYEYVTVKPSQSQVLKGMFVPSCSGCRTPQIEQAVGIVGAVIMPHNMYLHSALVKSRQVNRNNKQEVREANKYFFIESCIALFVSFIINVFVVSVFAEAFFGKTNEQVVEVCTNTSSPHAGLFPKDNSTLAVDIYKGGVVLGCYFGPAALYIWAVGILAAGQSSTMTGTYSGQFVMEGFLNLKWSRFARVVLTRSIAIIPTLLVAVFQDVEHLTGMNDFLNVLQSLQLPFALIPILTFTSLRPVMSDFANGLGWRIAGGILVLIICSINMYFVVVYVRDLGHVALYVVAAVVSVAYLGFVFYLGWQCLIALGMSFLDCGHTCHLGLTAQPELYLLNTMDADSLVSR
Test: DMT1 Activity Assay (In Vitro Assay)
Settings: read-out: IC50 Activity Level
pIC50: −log10 of the molar value. Structures can show the parent of a compound that is named as a salt.
outcome.measure: pIC50

The following compounds have reported results that may help.
>  <compound>
N#CN=C(N)Cc1ccccc1Sc1ccccc1CC(N)=NC#N [Example 7.1]

>  <experimental.system>
DMT1 (Homo sapiens)

>  <pIC50>
≤ 6.00

$$$$
>  <compound>
N=C(N)CCCc1ccccc1Sc1ccccc1CCCC(=N)N [Example 6.2]

>  <experimental.system>
DMT1 (Homo sapiens)

>  <pIC50>
≤ 6.00

$$$$
>  <compound>
N=C(N)SCc1ccccc1Sc1ccc(C(F)(F)F)cc1CSC(=N)N [Example 1.27, dihydrobromide]

>  <experimental.system>
DMT1 (Homo sapiens)

>  <pIC50>
≤ 6.00

$$$$

QUERY: Consider the compound N=C(N)SCc1cc(F)ccc1Sc1ccc(F)cc1CSC(=N)N [Example 2, dihydrobromide] and give its recorded pIC50.
RESULT: 6.00 to 7.00

QUERY: Consider the compound N=C(N)SCc1ccccc1C(=O)c1ccccc1CSC(=N)N [Example 2.25, dihydrobromide] and give its recorded pIC50.
RESULT: 6.00 to 7.00

QUERY: Consider the compound N=C(N)SCc1ccccc1C(=O)c1cc(Cl)ccc1CSC(=N)N [Example 2.28, dihydrobromide dihydrobromide] and give its recorded pIC50.
RESULT: ≤ 6.00

QUERY: Consider the compound CNC(=N)SCc1ccccc1Sc1ccccc1CSC(=N)NC [Example 1.29, dihydrobromide] and give its recorded pIC50.
RESULT: ≤ 6.00

QUERY: Consider the compound N=C(N)SCc1cc(F)ccc1Oc1ccc(Cl)cc1CSC(=N)N [Example 2.11, dihydrobromide] and give its recorded pIC50.
RESULT: 6.00 to 7.00
